In this section we review reported z-score values for a set of compounds.
- PROTOCOL_DESCRIPTION: A549 lung cancer cell viability effects, profiling panel, resazurin fluorescence, 24 h, PK04 Diversity Set (AID 1171); note: test concentration not given here
- ASSAY_CONTEXT: higher = more signal, called active from +8 up or from −8 down
Calls of active or inactive are those of the source.
PROPERTY_LABEL: z-score

CC(C)CN1C(=O)[C@@]2(c3ccc([N+](=O)[O-])cc3)CC(=O)N(CC34CC5CC(CC(C5)C3)C4)[C@@H]2c2ccc(CO)cc21 ... -0.186 (inactive)
COC(=O)[C@@]1(Cc2ccc(OC)cc2)[C@H]2c3cc(C(=O)N(C)C)n(Cc4ccccc4)c3C[C@H]2CN1C(=O)c1ccccc1 ... 0.616 (inactive)
CCOC(=O)C1=CC[C@@H](c2cc(Cl)ccc2Cl)N(S(=O)(=O)c2ccc(C)cc2)[C@H]1c1ccc(OC)cc1 ... -0.629 (inactive)
O=C1NCC(=O)N2[C@@H]1C[C@@H](C(=O)O)[C@H]2c1ccc(O)cc1 ... 0.249 (inactive)
COC(=O)[C@@]1(Cc2ccccc2)[C@H]2c3cc(C(=O)N4CCCC4)n(Cc4ccsc4Br)c3C[C@H]2CN1C(=O)c1ccccc1 ... -0.9 (inactive)
CC(C)C(O)C1C=CC2C(=O)N(C)C(=O)C2N1N(c1ccccc1)c1ccccc1 (stereo unspecified) ... -0.391 (inactive)
CC(C)(C)OC(=O)CC[C@@]1(C(=O)O)N=C(c2ccc(OCCCO)cc2)O[C@@H]1c1ccccc1 ... 0.477 (inactive)
CN(C)CCCNC(=O)[C@@H]1c2ccccc2C(=O)N(Cc2ccc(OC(F)(F)F)cc2)[C@H]1c1ccc(CO)cc1 ... 0.989 (inactive)
C[C@H]1C2=C3C(CC[C@H]4C(OCc5ccc(F)cc5C(F)(F)F)OC[C@](C)([C@@H]34)N(C(=O)OC(C)(C)C)C2)C2COC(=O)OCC21 (stereo partly specified) ... 0.117 (inactive)
COc1ccc([Si](C)(C)[C@@H]2[C@@H](CCO)O[C@]3(C(=O)N(Cc4cccc(N5C(=O)c6cccc7cccc5c67)c4)c4ccccc43)[C@H]2C)cc1 ... -2.26 (inactive)
NC(=O)NCC#Cc1ccc2c(c1)[C@]1(C(=O)N2)[C@H](C(=O)O)[C@H]2C(=O)O[C@H](c3ccccc3)[C@H](c3ccccc3)N2[C@@H]1c1ccccc1OCCO ... 0.877 (inactive)
C=C(CCCC)C(=O)CC[C@@H](OC(=O)c1cccnc1)c1ccccc1OCCO ... 0.335 (inactive)
COCCCNC(=O)[C@]1(Cc2ccccc2N=[N+]=[N-])N=C(c2ccc(OCCCO)cc2)O[C@@H]1c1ccccc1N=[N+]=[N-] ... -2.56 (inactive)
C=C(COC)/C(=C/C[C@@H](OC(=O)c1ccncc1)c1ccc(CO)o1)c1cnc2ccccc2c1 ... 0.331 (inactive)
CCCN1C(=O)[C@]2(Cc3ccccc3)N=C(c3ccc(OCCCO)cc3)O[C@@H]2c2ccccc21 ... -0.593 (inactive)
C=C1C2CC3C(=C4C(CO[C@@H]4[C@H]4CCCN4S(=O)(=O)c4ccccc4[N+](=O)[O-])C4C(=O)N(C)C(=O)C34)CC2C(=O)N1C (stereo partly specified) ... -0.123 (inactive)
NC(=O)N1C(=O)C2C(C1=O)C1C=C(c3ccc(CO)cc3)C2C(C2CC2)N1Cc1sc2ccccc2c1Cl (stereo unspecified) ... -0.207 (inactive)
COc1ccc(C#Cc2ccc3c(c2)[C@]2(C(=O)N3)[C@H](C(=O)N3CCc4cc(OC)c(OC)cc4C3)[C@H]3C(=O)O[C@H](c4ccccc4)[C@H](c4ccccc4)N3[C@@H]2c2ccc(O)cc2)cc1 ... -0.297 (inactive)
COCCOC(=O)N1C(=O)[C@@]2(c3cc(C#CC4(O)CCCCCC4)ccc31)[C@H](C(=O)N1CCCCCCC1)[C@H]1C(=O)O[C@H](c3ccccc3)[C@H](c3ccccc3)N1[C@@H]2c1ccc(OCCO)cc1 ... 1.08 (inactive)
CCOC(=O)C[C@H]1[C@H](OC(=O)Cc2ccc3c(c2)OCO3)[C@@H](NC(=O)Cc2ccc(OC)cc2)c2cc(OCCCO)ccc2N1C(=O)c1ccccc1 ... -0.0709 (inactive)
Cc1ccc(S[C@]2(C(=O)NCC(C)C)CC(=O)N(Cc3ccccc3Cl)[C@@H]2c2ccc(CO)cc2I)cc1 ... 0.622 (inactive)
